Where do these numbers come from? They come from patent US20220332795A1.

# Tested Target: T1, recombinant biotinylated human CD71 extracellular domain (human, UniProt P02786 89-760, biotinylated)
# T1 construct: extracellular domain; also called hCD71; huCD71 ECD
# T1 sequence (P02786 other isoform, or with tags, fused parts or gaps): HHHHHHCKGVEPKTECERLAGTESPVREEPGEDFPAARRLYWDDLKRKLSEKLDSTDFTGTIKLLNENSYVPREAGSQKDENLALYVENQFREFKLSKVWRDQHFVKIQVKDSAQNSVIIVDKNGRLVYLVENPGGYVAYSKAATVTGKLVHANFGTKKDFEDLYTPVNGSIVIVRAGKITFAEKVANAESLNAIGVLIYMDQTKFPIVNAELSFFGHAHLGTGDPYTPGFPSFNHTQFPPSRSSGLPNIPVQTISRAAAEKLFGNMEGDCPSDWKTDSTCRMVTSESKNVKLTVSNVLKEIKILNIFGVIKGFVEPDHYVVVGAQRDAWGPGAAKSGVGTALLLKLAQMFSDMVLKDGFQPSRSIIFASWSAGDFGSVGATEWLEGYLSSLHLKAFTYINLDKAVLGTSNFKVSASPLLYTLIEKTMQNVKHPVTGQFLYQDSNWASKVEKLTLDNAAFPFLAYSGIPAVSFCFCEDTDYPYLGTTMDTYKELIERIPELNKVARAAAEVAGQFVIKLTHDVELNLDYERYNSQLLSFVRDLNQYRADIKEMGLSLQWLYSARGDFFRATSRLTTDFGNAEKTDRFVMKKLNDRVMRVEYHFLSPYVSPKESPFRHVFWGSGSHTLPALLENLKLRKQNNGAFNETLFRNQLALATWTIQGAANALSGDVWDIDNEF
# Method Description: solution ELISA
Property Name: hCD71, RLU (RLU)
Please reply with the bare figure in RLU and do not write the unit itself.

// below: answered binders
Binder	hCD71, RLU [RLU]
SEQ ID NO 189 (designed binder, FN3 domain) MLPAPKNLVVSRVTEDSARLSWTAPDAAFDSFYIAYAEPRPDGEAIQLTVPGSERSYDLTGPKPGTEYWVLIQGVKGGGSSVPLVAYFTT	2.57e+06
SEQ ID NO 149 (designed binder, FN3 domain) MLPAPKNLVVSRVTEDSARLSWTAPDAAFDSFYIAYAEPRPDGEAIQLWVPGSERSYDLTGLKPGTEYSVLIHGVKGGLLSSPLSAIFTT	1.56e+06
SEQ ID NO 163 (designed binder, FN3 domain) MLPAPKNLVVSRVTEDSARLSWTAPDAAFDSFFIGYLEPQPPGEAIYLEVPGSERSYDLTGLKPGTEYNVTIQGVKGGFPSFPLKAAFTT	313000
SEQ ID NO 152 (designed binder, FN3 domain) MLPAPKNLVVSRVTEDSARLSWTAPDAAFDSFYIAYAEPRPDGEAITLDVPGSERSYDLTGLKPGTEYSVLIHGVKGGLLSSPLYAFFTT	764000
SEQ ID NO 158 (designed binder, FN3 domain) MLPAPKNLVVSRVTEDSARLSWTAPDAAFDSFYIAYAEPRPDGEAIILQVPGSERSYDLTGLKPGTEYSVLIHGVKGGLLSSPLSAVFTT	4.99e+06

Form field hCD71, RLU, entry SEQ ID NO 146 (designed binder, FN3 domain) MLPAPKNLVVSRVTEDSARLSWTAPDAAFDSFYIAYAEPRPDGEAITLHVPGSERSYDLTGLKPGTEYSVLIHGVKGGLLSSPLSAIFTT : 1.08e+06

Form field hCD71, RLU, entry SEQ ID NO 165 (designed binder, FN3 domain) MLPAPKNLVVSRVTEDSARLSWTAPDAAFDSFYIAYAEPRPDGEAIVLQVPGSERSYDLTGLKPGTEYSVLIHGVKGGLLSSPLAAWFTT : 4.91e+06

Form field hCD71, RLU, entry SEQ ID NO 202 (designed binder, FN3 domain) MLPAPKNLVVSRVTEDSARLSWTAPDAAFDSFDIGYTEYGGYGEAILHVPGSERSYDLTGLKPGTEYWVLIQGVKGGGSSVPLSAIFTT : 1.51e+06

Form field hCD71, RLU, entry SEQ ID NO 115 (designed binder, FN3 domain) MLPAPKNLVVSRVTEDSARLSWTAPDAAFDSFYIAYAEPRPDGEAIELHVPGSERSYDLTGLKPGTEYSVLIHGVKGGLLSSPLFTT : 3.47e+06

Form field hCD71, RLU, entry SEQ ID NO 133 (designed binder, FN3 domain) MLPAPKNLVVSRVTEDSARLSWTAPDAAFDSFYIAYAEPRPDGEAIYLYVPGSERSYDLTGLKPGTEYSVLIHGVKGGLLSSPLDAFFTT : 1.04e+06

Form field hCD71, RLU, entry SEQ ID NO 192 (designed binder, FN3 domain) MLPAPKNLVVSRVTEDSARLSWTAPDAAFDSFDIGYTEYGGYGEAIYLSVPGSERSYDLTGLKPGTEYWVLIQGVKGGGSSVPLSAIFTT : 1.77e+06

Form field hCD71, RLU, entry SEQ ID NO 155 (designed binder, FN3 domain) MLPAPKNLVVSRVTEDSARLSWTAPDAAFDSFYIAYAEPRPDGEAIWLVVPGSERSYDLTGLKPGTEYSVLIHGVKGGLLSSPLHARFTT : 513000

Form field hCD71, RLU, entry SEQ ID NO 156 (designed binder, FN3 domain) MLPAPKNLVVSRVTEDSARLSWTAPDAAFDSFYIAYAEPRPDGEAIFLQVPGSERSYDLTGLKPGTEYSVLIHGVKGGLLSSPLAAVFTT : 2.46e+06

Form field hCD71, RLU, entry SEQ ID NO 132 (designed binder, FN3 domain) MLPAPKNLVVSRVTEDSARLSWTAPDAAFDSFFIPYAEPSPTGEAIVLTVPGSERSYDLTGLKPGTEYSVLIHGVKGGLLSSPLSAHFTT : 1.78e+06

Form field hCD71, RLU, entry SEQ ID NO 135 (designed binder, FN3 domain) MLPAPKNLVVSRVTEDSARLSWTAPDAAFDSFYIAYAEPRPDGEAIQLAVPGSERSYDLTGLKPGTEYSVLIHGVKGGLLSSPLHAFFTT : 967000

Form field hCD71, RLU, entry SEQ ID NO 193 (designed binder, FN3 domain) MLPAPKNLVVSRVTEDSARLSWTAPDAAFDSFYIAYAEPRPDGEAISLSVPGSERSYDLTGLKPGTEYSVLIHGVKGGLLSSPLIANFTT : 1.71e+06

Form field hCD71, RLU, entry SEQ ID NO 200 (designed binder, FN3 domain) MLPAPKNLVVSRVTEDSARLSWTAPDAAFDSFYIAYAEPRPDGEAIWLEVPGSERSYDLTGLKPGTEYSVLIHGVKGGLLSSPLVADFTT : 930000

Form field hCD71, RLU, entry SEQ ID NO 150 (designed binder, FN3 domain) MLPAPKNLVVSRVTEDSARLSRTAPDAAFDSFYIAYAEPRPDGEAIVLIVPGSERSYDLTGLKPGTEYSVLIHGVKGGLLSSPLSAIFTT : 1.3e+06
